All values here come from paper PMC10363032.

Assay: plasma pharmacokinetics of probe cocktail substrates and metabolites with and without adavosertib in patients
Settings: human, in vivo
experimental-endpoint: Median tmax, h (range)

compound: COc1ccc2[nH]c([S+]([O-])Cc3ncc(C)c(OC)c3C)nc2c1 (stereo not shown) [Omeprazole, omeprazole, reference compound]
experimental-endpoint: Median tmax, h (range)
result: 3.0 (0.7–6.0) h

compound: Cn1c(=O)[nH]c2ncn(C)c2c1=O [Paraxanthine, paraxanthine]
experimental-endpoint: Median tmax, h (range)
result: 8.0 (4.0–11.8) h

compound: COc1ccc2nc([S+]([O-])Cc3ncc(CO)c(OC)c3C)[nH]c2c1 (stereo not shown) [5-HO, 5-hydroxyomeprazole]
experimental-endpoint: Median tmax, h (range)
result: 3.0 (0.7–6.0) h

compound: Cn1c(=O)c2c(ncn2C)n(C)c1=O [Caffeine, caffeine, reference compound]
experimental-endpoint: Median tmax, h (range)
result: 0.5 (0.3–3.0) h
